System: Leishmania donovani
assay method text: Activity against Leishmania donovani
Format: cell-based
measured attribute: EC50 (nM)
Expressed in nM, but write only the number.

Query string: Given the molecule CC(C)(C)OC(=O)N[C@H]1Cc2ccc(cc2)Oc2ccc(cc2NC(=O)c2ccccn2)C(=O)CNC(=O)[C@H](Cc2ccccc2)NC1=O , what is its reported EC50?
Result string: 1040

* * *

assay method text: Clearance in mouse liver microsomes
Type: in vitro ADME
conditions used: mouse, liver microsomes, incubation with mouse liver microsomes; read-out: CLint
As shown below, each of these molecules has a reported microsomal CLint value.

CC(=O)Nc1cc2ccc1Oc1ccc(cc1)C[C@H](NC(=O)OC(C)(C)C)C(=O)N[C@@H](Cc1ccccc1)C(=O)NCC2=O [Compound 2]	260 µL/min/mg
CC(C)(C)OC(=O)N[C@H]1CCc2ccc(cc2)Oc2ccc(cc2NC(=O)c2ccccn2)C(=O)CNC(=O)[C@H](Cc2ccccc2)NC1=O [Compound 5]	> 580 µL/min/mg

Query string: Given the molecule CC(C)(C)OC(=O)N[C@H]1Cc2ccc(cc2)Oc2ccc(cc2NC(=O)c2ccccn2)CCNC(=O)[C@H](Cc2ccccc2)NC1=O [Compound 6] , what is its reported microsomal CLint?
Result string: > 580 µL/min/mg

* * *

assay method text: Chromatographic Log D at pH 7.4
Format: physicochemical
conditions used: 1-octanol/PBS pH 7.4, determined by chromatography, mean of two measurements
Experimental: The kinetic solubility in phosphate buffered saline at pH 7.4, chromatographic Log D at pH 7.4, cell permeability across a MDCK-MDR1 cell monolayer at pH 7.4, and the clearance in mouse liver microsomes of 1–12 was determined at TCG Lifesciences.
measured attribute: chromatographic logD
Reply with the value as a number alone.

Study these solved cases before continuing.
CC(=O)Nc1cc2ccc1Oc1ccc(cc1)C[C@H](NC(=O)OC(C)(C)C)C(=O)N[C@@H](Cc1ccccc1)C(=O)NCC2=O	3.2
CC(=O)N[C@H]1Cc2ccc(cc2)Oc2ccc(cc2NC(=O)c2ccccn2)C(=O)CNC(=O)[C@H](Cc2ccccc2)NC1=O	3.2

Pending compound:
Query string: Given the compound CC(C)C[C@@H]1NC(=O)[C@@H](NC(=O)OC(C)(C)C)Cc2ccc(cc2)Oc2ccc(cc2NC(=O)c2ccccn2)C(=O)CNC1=O , what is its reported chromatographic logD?
Result string: 4.8

* * *

assay method text: Kinetic solubility in phosphate buffered saline at pH 7.4
Format: physicochemical
conditions used: phosphate buffered saline, pH 7.4, CSV supplement; read-out: Kinetic solubility
As shown below, each of these compounds has a reported solubility kinetic value.
Expressed in µg/mL, but write only the number.

Study these solved cases before continuing.
CC(C)C[C@@H]1NC(=O)[C@@H](NC(=O)OC(C)(C)C)Cc2ccc(cc2)Oc2ccc(cc2NC(=O)c2ccccn2)C(=O)CNC1=O	4.8
CC(C)(C)OC(=O)N[C@H]1Cc2ccc(cc2)Oc2ccc(cc2NC(=O)c2ccccn2)C(=O)CNC(=O)[C@H](c2ccccc2)NC1=O	10.3
COc1ccc(C[C@H](NC(=O)OC(C)(C)C)C(=O)N[C@@H](Cc2ccccc2)C(=O)NCC(=O)c2cccc(NC(=O)c3ccccn3)c2)cc1	4.9
CC(C)(C)OC(=O)N[C@H]1Cc2ccc(cc2)Oc2ccc(cc2NC(=O)c2ccccn2)C(=O)CNC(=O)[C@@H](Cc2ccccc2)NC1=O	1.9

Query string: Given the compound CC(C)(C)C(=O)N[C@H]1Cc2ccc(cc2)Oc2ccc(cc2NC(=O)c2ccccn2)C(=O)CNC(=O)[C@H](Cc2ccccc2)NC1=O , what is its reported solubility kinetic?
Result string: 10.3

Query string: Consider next the compound CC(=O)Nc1cc2ccc1Oc1ccc(cc1)C[C@H](NC(=O)OC(C)(C)C)C(=O)N[C@@H](Cc1ccccc1)C(=O)NCC2=O in the same way.
Result string: 101

Query string: Consider next the compound CC(C)(C)OC(=O)N[C@H]1Cc2ccc(cc2)Oc2ccc(cc2)C(=O)CNC(=O)[C@H](Cc2ccccc2)NC1=O in the same way.
Result string: 24

Query string: Consider next the compound CC(C)(C)OC(=O)N[C@H]1CCc2ccc(cc2)Oc2ccc(cc2NC(=O)c2ccccn2)C(=O)CNC(=O)[C@H](Cc2ccccc2)NC1=O in the same way.
Result string: 1.8

Query string: Consider next the compound C[C@@H]1NC(=O)[C@@H](NC(=O)OC(C)(C)C)Cc2ccc(cc2)Oc2ccc(cc2NC(=O)c2ccccn2)C(=O)CNC1=O in the same way.
Result string: 73.7

* * *

Tested on: MDR1
assay method text: in vitro
Type: in vitro ADME, canine
conditions used: dog, MDCK-MDR1, pH 7.4
Entries are sorted into classes by Papp B→A as follows: lo = under 10 ×10⁻⁶ cm/s, med = from 10 ×10⁻⁶ cm/s up to 20 ×10⁻⁶ cm/s, hi = 20 ×10⁻⁶ cm/s and over

CC(C)(C)C(=O)N[C@H]1Cc2ccc(cc2)Oc2ccc(cc2NC(=O)c2ccccn2)C(=O)CNC(=O)[C@H](Cc2ccccc2)NC1=O	hi
CC(C)(C)OC(=O)N[C@H]1Cc2ccc(cc2)Oc2ccc(cc2NC(=O)c2ccccn2)C(=O)CNC(=O)[C@H](Cc2ccccc2)NC1=O	hi
C[C@@H]1NC(=O)[C@@H](NC(=O)OC(C)(C)C)Cc2ccc(cc2)Oc2ccc(cc2NC(=O)c2ccccn2)C(=O)CNC1=O	hi
COc1ccc(C[C@H](NC(=O)OC(C)(C)C)C(=O)N[C@@H](Cc2ccccc2)C(=O)NCC(=O)c2cccc(NC(=O)c3ccccn3)c2)cc1	lo
CC(C)(C)OC(=O)N[C@H]1Cc2ccc(cc2)Oc2ccc(cc2NC(=O)c2ccccn2)C(=O)CNC(=O)[C@H](c2ccccc2)NC1=O	lo
CC(C)(C)OC(=O)N[C@H]1Cc2ccc(cc2)Oc2ccc(cc2)C(=O)CNC(=O)[C@H](Cc2ccccc2)NC1=O	hi
CC(=O)Nc1cc2ccc1Oc1ccc(cc1)C[C@H](NC(=O)OC(C)(C)C)C(=O)N[C@@H](Cc1ccccc1)C(=O)NCC2=O	med
CC(C)(C)OC(=O)N[C@H]1Cc2ccc(cc2)Oc2ccc(cc2NC(=O)c2ccccn2)C(=O)CNC(=O)[C@@H](Cc2ccccc2)NC1=O	hi
CC(C)(C)OC(=O)N[C@H]1CCc2ccc(cc2)Oc2ccc(cc2NC(=O)c2ccccn2)C(=O)CNC(=O)[C@H](Cc2ccccc2)NC1=O	med
CC(=O)N[C@H]1Cc2ccc(cc2)Oc2ccc(cc2NC(=O)c2ccccn2)C(=O)CNC(=O)[C@H](Cc2ccccc2)NC1=O	med

Query string: Categorize the following entry: CC(C)C[C@@H]1NC(=O)[C@@H](NC(=O)OC(C)(C)C)Cc2ccc(cc2)Oc2ccc(cc2NC(=O)c2ccccn2)C(=O)CNC1=O
Result string: lo

Query string: Consider next the compound CC(C)(C)OC(=O)N[C@H]1Cc2ccc(cc2)Oc2ccc(cc2NC(=O)c2ccccn2)CCNC(=O)[C@H](Cc2ccccc2)NC1=O in the same way.
Result string: hi

* * *

assay method text: Clearance in human microsomes
Type: in vitro ADME
conditions used: CSV supplement
measured attribute: t(1/2), Human Microsomes

COc1ccc(C[C@H](NC(=O)OC(C)(C)C)C(=O)N[C@@H](Cc2ccccc2)C(=O)NCC(=O)c2cccc(NC(=O)c3ccccn3)c2)cc1 [Compound 4]	<3 min
CC(=O)Nc1cc2ccc1Oc1ccc(cc1)C[C@H](NC(=O)OC(C)(C)C)C(=O)N[C@@H](Cc1ccccc1)C(=O)NCC2=O [Compound 2]	6,1 min
CC(C)(C)OC(=O)N[C@H]1CCc2ccc(cc2)Oc2ccc(cc2NC(=O)c2ccccn2)C(=O)CNC(=O)[C@H](Cc2ccccc2)NC1=O [Compound 5]	<3 min
CC(C)C[C@@H]1NC(=O)[C@@H](NC(=O)OC(C)(C)C)Cc2ccc(cc2)Oc2ccc(cc2NC(=O)c2ccccn2)C(=O)CNC1=O [Compound 10]	4,8 min
CC(C)(C)OC(=O)N[C@H]1Cc2ccc(cc2)Oc2ccc(cc2NC(=O)c2ccccn2)C(=O)CNC(=O)[C@H](Cc2ccccc2)NC1=O [Compound 3]	<3 min

Query string: Given the compound CC(C)(C)OC(=O)N[C@H]1Cc2ccc(cc2)Oc2ccc(cc2)C(=O)CNC(=O)[C@H](Cc2ccccc2)NC1=O [Compound 1] , what is its reported t(1/2), Human Microsomes?
Result string: 3,5 min

Query string: Consider next the compound CC(C)(C)OC(=O)N[C@H]1Cc2ccc(cc2)Oc2ccc(cc2NC(=O)c2ccccn2)C(=O)CNC(=O)[C@H](c2ccccc2)NC1=O [Compound 9] in the same way.
Result string: 8,8 min

* * *

Tested on: MDR1
assay method text: in vitro
Assay type: in vitro ADME, canine
conditions used: dog, MDCK-MDR1, pH 7.4, MDCK MDR1 - pH 7.4 Efflux Ratio
As shown below, each of these compounds has a reported efflux ratio value.
Reply with the value as a number alone.

Query string: Give efflux ratio (MDR1) of the following compound: CC(C)(C)OC(=O)N[C@H]1Cc2ccc(cc2)Oc2ccc(cc2)C(=O)CNC(=O)[C@H](Cc2ccccc2)NC1=O
Result string: 4.3

Query string: Consider next the compound CC(C)(C)OC(=O)N[C@H]1Cc2ccc(cc2)Oc2ccc(cc2NC(=O)c2ccccn2)C(=O)CNC(=O)[C@H](Cc2ccccc2)NC1=O in the same way.
Result string: 6.4

Query string: Consider next the compound CC(C)(C)OC(=O)N[C@H]1Cc2ccc(cc2)Oc2ccc(cc2NC(=O)c2ccccn2)CCNC(=O)[C@H](Cc2ccccc2)NC1=O in the same way.
Result string: 8.4

Query string: Consider next the compound CC(C)(C)C(=O)N[C@H]1Cc2ccc(cc2)Oc2ccc(cc2NC(=O)c2ccccn2)C(=O)CNC(=O)[C@H](Cc2ccccc2)NC1=O in the same way.
Result string: 20.8

Query string: Consider next the compound CC(=O)Nc1cc2ccc1Oc1ccc(cc1)C[C@H](NC(=O)OC(C)(C)C)C(=O)N[C@@H](Cc1ccccc1)C(=O)NCC2=O in the same way.
Result string: 19.3

Query string: Consider next the compound CC(C)(C)OC(=O)N[C@H]1Cc2ccc(cc2)Oc2ccc(cc2NC(=O)c2ccccn2)C(=O)CNC(=O)[C@H](c2ccccc2)NC1=O in the same way.
Result string: 9.9

Query string: Consider next the compound CC(C)(C)OC(=O)N[C@H]1Cc2ccc(cc2)Oc2ccc(cc2NC(=O)c2ccccn2)C(=O)CNC(=O)[C@@H](Cc2ccccc2)NC1=O in the same way.
Result string: 7.6

Query string: Consider next the compound CC(C)C[C@@H]1NC(=O)[C@@H](NC(=O)OC(C)(C)C)Cc2ccc(cc2)Oc2ccc(cc2NC(=O)c2ccccn2)C(=O)CNC1=O in the same way.
Result string: 3.1

Query string: Consider next the compound CC(C)(C)OC(=O)N[C@H]1CCc2ccc(cc2)Oc2ccc(cc2NC(=O)c2ccccn2)C(=O)CNC(=O)[C@H](Cc2ccccc2)NC1=O in the same way.
Result string: 13.2

Query string: Consider next the compound C[C@@H]1NC(=O)[C@@H](NC(=O)OC(C)(C)C)Cc2ccc(cc2)Oc2ccc(cc2NC(=O)c2ccccn2)C(=O)CNC1=O in the same way.
Result string: 28.3
